Dear all, this message contains IC50 results, target or system USP14 (Homo sapiens, UniProt P54578).

Known results for compounds:
Give IC50 for this entry on USP14 (Homo sapiens, UniProt P54578): Cc1cc(C(=O)CN2CCC(O)(CN(C)C)C2)c(C)n1-c1ccc(Cl)cc1 (centres unmarked)
0.5 to 5 µM

Identify measured IC50 obtained with USP14 (Homo sapiens, UniProt P54578) for `Cc1cc(C(=O)CNCCOCc2ccccc2)c(C)n1-c1ccc(Cl)cc1` .
> 5 µM

Lab note: USP14 (Homo sapiens, UniProt P54578) assay, enter IC50 for `Cc1cc(Cl)cc(C)c1-n1cccc1C(=O)CN1CCCC1` here
> 5 µM

Please indicate recorded IC50 of `Cc1cc(Cl)cc(C)c1-n1cccc1C(=O)CN1CCCCC1` measured with USP14 (Homo sapiens, UniProt P54578).
> 5 µM

State the measured IC50 (USP14 (Homo sapiens, UniProt P54578)) of Cc1cc(C(=O)CN2CCC(OCc3ccccc3)C2)c(C)n1-c1ccc(Cl)cc1 (centres unmarked)
0.5 to 5 µM

More entries:
State IC50 on USP14 (Homo sapiens, UniProt P54578). Entry: `Cc1cc(C(=O)CC2CCNCC2)c(C)n1-c1ccc(Cl)cc1`
> 5 µM

Print USP14 (Homo sapiens, UniProt P54578) IC50 for `Cc1cc(C(=O)CN2CCCCC2)c(C)n1C1CCCCC1` .
0.5 to 5 µM

// fetch IC50 for `Cc1cc(C(=O)CN2CCCC2)c(C)n1-c1cccc2ccccc12` ; system: USP14 (Homo sapiens, UniProt P54578)
> 5 µM

* * *

Listed here: items and their measured IC50.
- target: USP14 (Homo sapiens)

Past entries and their recorded results:
Retrieve IC50 measured for `Cc1cc(C(=O)CN2CCCCC2)c(C)n1C1CCC1` and print it.
> 5 µM

Provide measured IC50 value, entry: `Cc1cc(C(=O)CN2CCCCC2)c(C)n1-c1ccc(S(C)(=O)=O)cc1`
> 5 µM

Indicate the recorded IC50 value for this molecule: `Cc1cc(C(=O)CN2CCCCC2)c(C)n1-c1ccc(C(F)(F)F)cc1`
0.5 to 5 µM

Find the measured IC50 of `Cc1cc(C(=O)CN2CCC(CN)CC2)c(C)n1-c1ccc(C#N)cc1` and report it.
< 0.5 µM

Retrieve IC50 measured for `Cc1cc(Cl)cc(C)c1-n1cccc1C(=O)CN1CCC(O)CC1` and print it.
> 5 µM

Output IC50 of `Cc1cc(C(=O)CNCCO)c(C)n1-c1ccc(Cl)cc1`
> 5 µM

# return recorded IC50 for entry `Cc1cc(C(=O)CNC2CC2)c(C)n1-c1ccc(Cl)cc1`
0.5 to 5 µM

Consider the molecule `CC(=O)c1c(CN2CCCCC2)c(C)n(-c2ccc(C#N)cc2)c1C` and give its recorded IC50.
> 5 µM

Give IC50 for `Cc1cc(Cl)cc(C)c1-n1ccc(C(=O)CN2CCCCC2)c1`
> 5 µM

Then there is this molecule:
Complete the entry with IC50 for `Cc1cc(C(=O)C[n+]2ccccc2)c(C)n1-c1ccc(Cl)cc1`
< 0.5 µM

* * *

Entries and their measured pIC50 follow.
- target: UniProt P54578
pIC50: −log10 of the molar value.

These recorded examples may help you get a feel for the data.
State recorded pIC50 with UniProt P54578, entry `Cc1cc(C(=O)CN2CCC(C(=O)O)CC2)c(C)n1-c1ccc(Cl)cc1` , no comment.
< 5.30

Please respond with reported pIC50 (system UniProt P54578) for Cc1cc(C(=O)CNC2CCC(C)CC2)c(C)n1-c1ccc(Cl)cc1 (stereo not drawn) .
5.30 to 6.30

# context switch: different compound, same pIC50
Provide pIC50, recorded with UniProt P54578, of `Cc1cc(C(=O)CN2CCCCC2)c(C)n1-c1ccc(C#N)cc1`
> 6.30
